TEST_DETAILS: qHTS assay to identify small molecule antagonists of the sonic hedgehog signaling (Shh) pathway (AID 1259369); note: nearly all actives have a fitted effect of over 45% in size; note: potency is the fitted concentration of half-maximal effect
CONDITION_PARAMETERS: NIH/3T3 Gli1-Luc reporter, Shh antagonist, luminescence 24 h; series mostly up to 92.4 µM
Results filed as inconclusive are left out. The source made the active and inactive calls. Calls come from the whole dose curve.
OBSERVATION_TYPE: Potency

Take a look at these entries with their results.
ClC1=C(Cl)[C@]2(Cl)[C@H]3[C@H]([C@H]4C=C[C@H]3C4)[C@@]1(Cl)C2(Cl)Cl ... inactive
CN(CCCC(=O)c1cccnc1)N=O ... inactive
C[C@@H]1CC[C@@]2(OC1)O[C@H]1[C@@H](O)[C@H]3[C@@H]4CC[C@H]5C[C@@H](O[C@@H]6O[C@H](CO)[C@H](O[C@@H]7O[C@H](CO)[C@@H](O)[C@H](O[C@@H]8OC[C@@H](O)[C@H](O)[C@H]8O)[C@H]7O[C@@H]7O[C@H](CO)[C@@H](O)[C@H](O[C@@H]8O[C@H](CO)[C@@H](O)[C@H](O)[C@H]8O)[C@H]7O)[C@H](O)[C@H]6O)[C@H](O)C[C@]5(C)[C@H]4CC[C@]3(C)[C@H]1[C@@H]2C ... 1.15 µM (active)
O=C(O)COc1nc(Cl)c(Cl)cc1Cl ... inactive
CC(C)(c1ccc(O)c(-c2ccccc2)c1)c1ccc(O)c(-c2ccccc2)c1 ... 12.2 µM (active)
CC(C)OC(=O)C(O)(c1ccc(Cl)cc1)c1ccc(Cl)cc1 ... 54.5 µM (active)
CC(O)C#N (stereo not drawn) ... inactive
CCOP(=S)(OCC)SCS(=O)(=O)CC ... inactive
COP(=O)(OC)SCn1c(=O)oc2cc(Cl)cnc21 ... inactive
CC(=O)[O-].CC(=O)[O-].O.O.[Cd+2] ... 1.07 µM (active)

Oc1c(Br)c(Br)c(Br)c(Br)c1Br yielded Potency of 19.4 µM (active)

Kindly note the recorded Potency for CCCN(CC)CC1COC2(CCC(C(C)(C)C)CC2)O1 (stereo not drawn) , which is inactive

---

TEST_DETAILS: qHTS assay to identify small molecule agonists of the estrogen receptor beta (ER-beta) signaling pathway - cell viability counter screen (AID 1259380); note: nearly all actives have a fitted effect of over 30% in size
CONDITION_PARAMETERS: ER-beta-bla HEK293T viability, CellTiter-Glo luminescence, 16 h; series mostly up to 92.4 µM
Results filed as inconclusive are left out. Activity calls are given as the source filed them. Calls come from the whole dose curve; as a rule, active = well fitted cell-killing curve with a large enough effect in the repeat runs; inconclusive = weak or mixed curves, or effect the other way; inactive = flat fitted curve, though single readings scatter.
Choose one outcome from this list and give only that: 1 (active), -1 (inactive)

Please review the following examples before continuing.
ClC1=C(Cl)C2(Cl)C3C(Cl)C=CC3C1(Cl)C2(Cl)Cl (stereo unspecified) ... 1
[CH3][Hg][Cl] ... 1
N#CCCSCCC#N ... -1
CCOP(=S)(OCC)SCS(=O)(=O)CC ... -1
Cc1cc(N=Nc2ccccc2C)ccc1N ... 1

Status in this test for COc1cc(N)c(Cl)cc1C(=O)NC1CN2CCC1CC2 (stereo unspecified) ?
-1

Hey, what did the test say about OC(c1ccc(Cl)cc1)(c1ccc(Cl)cc1)C(Cl)(Cl)Cl ?
-1

For CC(C)CC(C)Nc1ccc(Nc2ccccc2)cc1 (stereo unspecified) , what call appears in the results of this test?
1

---

TEST_DETAILS: qHTS assay to identify small molecule antagonists of the farnesoid-X-receptor (FXR) signaling pathway - cell viability counter screen (AID 743221); note: nearly all actives have a fitted effect of over 50% in size
CONDITION_PARAMETERS: FXR-bla HEK293T viability, CellTiter-Glo luminescence, 16 h; series mostly up to 62.6 µM
Records with an inconclusive call do not appear. Calls of active or inactive are those of the source. Calls follow the shape of the dose curve; as a rule, active = well fitted cell-killing curve with a large enough effect in the repeat runs (not every such curve was filed as active); inconclusive = weak or mixed curves, or effect the other way; inactive = no such curve, though single readings can be large or run the other way.
Hi there, use one of these labels in your reply, thanks! true (active), false (inactive)

Consider the worked cases shown below.
CCOC(=O)CC(=O)CCl ... false
CCC[CH2][Sn]([CH2]CCC)([CH2]CCC)[O]C(=O)c1ccccc1 ... true
Oc1ccc(C(c2ccc(O)cc2)(C(F)(F)F)C(F)(F)F)cc1 ... false
BrC(Br)Br ... false
CC(C)[C@H](C(=O)O[C@H](C#N)c1cccc(Oc2ccccc2)c1)c1ccc(Cl)cc1 ... false
c1ccc(Nc2ccc3ccccc3c2)cc1 ... false

Check the results log: what was the call for O=C(CCCN1CCC2(CC1)C(=O)NCN2c1ccccc1)c1ccc(F)cc1 ?
false

Hi, do you know how CC(=O)C(Cl)(Cl)Cl came out in this test?
false

Please let me know the test result on file for CC(C)OC(=S)S .
false

Hello, I am checking results. What call was entered for CC1(C)CC/C(=C/c2ccc(Cl)cc2)C1(O)Cn1cncn1 (stereo not given) ?
false

Hi team, can someone confirm the assay call for CC(=O)[O-].CC(=O)[O-].[Hg+2] ?
true
